- measurement-description: soluble on expression in E. coli; label from the status in PepcDB or PDB records

# chain, soluble on expression in E. coli
rows = [
    ("MAHHHHHHMDTSARRCFVEVYTDGCDEPRLLQLEPTVKFHNVLRRFDKDGDLYWGDHRIDPQTTPVAVGMDCGVDKANTLWFIPALPRAKPCGVSRVDSTAPLGSPPPVDATEGPALRPARGTSLPAYFDDRAAPWHSSGDHAARGSLIRAWMASASAATTPSWYSRPRLLSPVPLSLPRSAVRVPHTQVQPPSGMPTDPIMHAAGGSRHTGAPVAALEAHGGEKIAPVRRLCAAPAPRAPSPPHSTVPVRRNAPVCIDPHVLVDDTSDAVEALQTELRHLSSEMRAMRLRNPLDYNSVTPMRQVVVRPAGMDAAPAIASPICLSMAEPSVEELATELHDKQMHRLYKQRHLYLTHDFHV", "not soluble"),
    ("NDAIPTIFIHGYRGTDRSLHGMIRRFDQKYNWGTESLTVNVSPDGSISTTGTYSKNEKNPLINIVFEDNRATLPQQSMWTKKIMSYLQKNYDIKKFNAIGHSMGGGAWVSYLASYEKNKSYPQVNKIVFLAVPFYPEEYVNGDQQVDIKNANNVHAKFAQKMAKVLPDNTEIMIIGGDLEDGSNSDGEVKLNSVLYGQKLFAHQKVITHVIKGPKATHSSMHESTVVDKYVGQFLWG", "not soluble"),
]
